- Target Under Test: human β1-adrenoceptor (Homo sapiens)
- Sequence (P08588 whole entry): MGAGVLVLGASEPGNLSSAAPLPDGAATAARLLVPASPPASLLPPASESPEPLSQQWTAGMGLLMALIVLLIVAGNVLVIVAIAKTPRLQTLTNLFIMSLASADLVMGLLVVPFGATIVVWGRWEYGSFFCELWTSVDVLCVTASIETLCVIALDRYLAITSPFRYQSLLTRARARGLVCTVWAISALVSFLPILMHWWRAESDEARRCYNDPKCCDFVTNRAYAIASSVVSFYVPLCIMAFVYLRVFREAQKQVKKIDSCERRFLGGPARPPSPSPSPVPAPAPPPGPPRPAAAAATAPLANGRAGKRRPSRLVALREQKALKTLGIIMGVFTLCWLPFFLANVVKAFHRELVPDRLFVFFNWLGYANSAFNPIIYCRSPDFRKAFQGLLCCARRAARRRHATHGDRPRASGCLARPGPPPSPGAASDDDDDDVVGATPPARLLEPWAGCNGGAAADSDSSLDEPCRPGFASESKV
- Method Notes: Antagonistic activity, isoproterenol-induced cAMP production in CHO cells (Assay 3)
- Measurement Parameters: antagonist; inhibition of cAMP production induced by 100 nM isoproterenol, CHO cells expressing human β1-adrenoceptor; read-out: Beta-1 IC50
pIC50: −log10 of the molar value.
Recorded Metric: pIC50

QUERY: Given O=C(O)c1ccccc1Oc1ccc2c(c1)CC[C@H](CNC[C@H](O)COc1ccccc1)O2 , state its recorded pIC50.
RESULT: < 5.00

====

- Target Under Test: β3-adrenoceptor (Homo sapiens)
- Construct: which endogenously express β1- and β3-adrenoceptors; endogenous in cells; host or cells: SK-N-MC human neuroblastoma cells
- Sequence (P13945 whole entry): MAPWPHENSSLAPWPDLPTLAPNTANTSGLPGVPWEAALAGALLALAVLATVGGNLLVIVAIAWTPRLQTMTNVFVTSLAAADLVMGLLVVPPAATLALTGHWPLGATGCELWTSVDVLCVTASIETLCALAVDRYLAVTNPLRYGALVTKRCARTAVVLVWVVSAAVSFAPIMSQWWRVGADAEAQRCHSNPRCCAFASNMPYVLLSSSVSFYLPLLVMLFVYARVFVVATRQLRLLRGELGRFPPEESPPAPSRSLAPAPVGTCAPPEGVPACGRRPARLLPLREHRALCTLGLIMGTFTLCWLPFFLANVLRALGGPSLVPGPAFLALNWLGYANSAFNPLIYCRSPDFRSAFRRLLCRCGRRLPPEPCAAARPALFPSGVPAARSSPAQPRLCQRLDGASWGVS
- Method Notes: Measurement of cAMP production in SK-N-MC cells (Assay 1 - Method B)
- Format: cell-based
- Measurement Parameters: 1 μM Atenolol, read-out: Beta-3 EC50
Structures can show the parent of a compound that is named as a salt.
A collection of compounds and their measured EC50
Answer in nM, number only, no unit symbol.

O=C(O)c1cc(F)ccc1Oc1ccc2c(c1)CC[C@H](CNC[C@H](O)COc1ccccc1)O2 [Example 44, Hydrochloride] ... 23

QUERY: Quick check: EC50 on β3-adrenoceptor (Homo sapiens), item O=C(O)c1cccc(Nc2ccc3c(c2)CC[C@H](CNC[C@H](O)COc2ccccc2)O3)c1 ?
RESULT: 186
